Molecular target: T1, recombinant human CRF2 (HEK cell membranes) (human, UniProt Q13324 1-411)
T1 construct: Whole receptor in membranes prepared from HEK cells; also called CRF2a (h); CRF2 receptor
T1 sequence (looked up): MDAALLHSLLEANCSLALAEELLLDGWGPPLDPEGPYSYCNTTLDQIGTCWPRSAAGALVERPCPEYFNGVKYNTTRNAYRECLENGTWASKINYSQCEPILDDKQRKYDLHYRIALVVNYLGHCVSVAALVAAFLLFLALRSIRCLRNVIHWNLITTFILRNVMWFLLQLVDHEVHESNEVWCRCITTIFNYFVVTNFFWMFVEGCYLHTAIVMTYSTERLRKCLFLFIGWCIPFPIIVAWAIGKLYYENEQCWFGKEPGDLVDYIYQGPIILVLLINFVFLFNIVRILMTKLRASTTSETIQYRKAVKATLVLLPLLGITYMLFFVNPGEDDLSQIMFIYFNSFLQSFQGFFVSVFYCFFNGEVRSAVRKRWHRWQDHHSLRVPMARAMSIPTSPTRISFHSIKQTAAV
Test: radioligand competition against [125]sauvagine (0.1 nM), HEK membranes with recombinant human CRF2; Cheng Prusoff
Starred links: 1 amine or outer side, 2 acyl side, 3 side chain; linkers in the order of their positions; H or OH if unused. Groups on a side chain read outwards from the residue. No end group written: not given here. *: point of attachment. C20 diacid = O=C(O)CCCCCCCCCCCCCCCCCCC(=O)*; γGlu = O=C(O)[C@H](CCC(=O)[*:2])N[*:1]; AEEA = NCCOCCOCC(=O)O
readoutKind: Ki (nM)
Give the quantity in nM, number only.

Return reported Ki; argument: FTLSLDVPTKIK([AEEA-AEEA-γGlu-C20 diacid])QILLKQQKQKKERQQAEKNKQLLEQI-NH2 [peptide of SEQ ID NO: 59]
7.2
